Target: Cytochrome P450 3A4 (Homo sapiens) (UniProt P08684)
Sequence (P08684 whole entry, looked up): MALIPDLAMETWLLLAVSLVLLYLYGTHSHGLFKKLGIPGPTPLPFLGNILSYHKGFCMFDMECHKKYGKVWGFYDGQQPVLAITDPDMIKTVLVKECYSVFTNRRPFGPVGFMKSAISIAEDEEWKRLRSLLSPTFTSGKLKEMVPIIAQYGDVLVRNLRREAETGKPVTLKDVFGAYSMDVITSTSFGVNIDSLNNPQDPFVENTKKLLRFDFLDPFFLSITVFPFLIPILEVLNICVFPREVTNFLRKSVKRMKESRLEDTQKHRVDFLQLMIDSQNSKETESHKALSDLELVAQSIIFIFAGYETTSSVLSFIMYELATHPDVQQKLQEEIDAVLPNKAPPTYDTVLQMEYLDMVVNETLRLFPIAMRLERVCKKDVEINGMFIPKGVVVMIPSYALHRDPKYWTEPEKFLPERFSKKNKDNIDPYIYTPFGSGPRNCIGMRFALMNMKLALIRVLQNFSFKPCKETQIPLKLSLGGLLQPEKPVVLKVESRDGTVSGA
Experiment: qHTS Assay for Inhibitors and Substrates of Cytochrome P450 3A4 (AID 884); further: nearly all actives have a fitted effect of over 50% in size
Details: recombinant CYP3A4, Luciferin-PPXE luminescence; series mostly up to 57.1 µM
Results filed as inconclusive are left out. The source made the active and inactive calls. The call rests on the fitted dose curve; in most records, active means well fitted inhibition curve with a large enough effect; inconclusive means small, poorly fitted or top-dose-only effect; inactive means no such curve, though single readings can be large or run the other way.
Lab note: assign the record to one of yes = active, no = inactive

## Task What did this assay record as the result for CCC/C=C(\CCC)C(NS(=O)(=O)CC12CCC(CC1=O)C2(C)C)c1ccc(C(=O)OC)cc1 (stereo not given) ?
## Result yes

## Task Which result was noted for this compound in the test: O=C1C[C@H](c2ccccc2)Oc2cc(O)cc(O)c21
## Result yes

## Task Please let me know the test result on file for CCN1CCN(C(=O)NC(C(=O)NC2C(=O)N3C(C(=O)O)=C(CSc4nnnn4C)CSC23)c2ccc(O)cc2)C(=O)C1=O (stereo not given) .
## Result no

## Task What is the recorded call for this compound in the test? O=c1cc(-c2ccc(O)cc2O)oc2ccccc12
## Result yes

## Task For this compound, state the assay outcome: CCCC[C@@H]1C[C@H]1C(NC(=O)c1cccs1)c1ccc(C(F)(F)F)cc1 (stereo not given in full)
## Result yes
